Assay: Residual moisture
Type: physicochemical
Settings: Tables 1-4, salts lyophilised without support
Measured residual moisture of individual entries
Report only the number, with the unit % understood.

Worked examples follow.
Note down residual moisture recorded for C[S+](CCC(N)C(=O)[O-])CC1OC(n2cnc3c(N)ncnc32)C(O)C1O (centres unmarked) [SAM.2HCl.nH2 SO4, n=0.5, reference compound] 0.8

Supply measured residual moisture of C[S+](CCC(N)C(=O)[O-])CC1OC(n2cnc3c(N)ncnc32)C(O)C1O (centres unmarked) [SAM.nHCl, n=3, reference compound] in your reply. 0.8

Please give the documented residual moisture of C[S+](CCC(N)C(=O)[O-])CC1OC(n2cnc3c(N)ncnc32)C(O)C1O (centres unmarked) [SAM.1.5H2 SO4.nHCl, n=2] 1.5

Check the records and state residual moisture for C[S+](CCC(N)C(=O)[O-])CC1OC(n2cnc3c(N)ncnc32)C(O)C1O (centres unmarked) [SAM.nH2 SO4, n=1.5, reference compound] 0.8

We now examine a further compound.
Note residual moisture for the compound shown: C[S+](CCC(N)C(=O)[O-])CC1OC(n2cnc3c(N)ncnc32)C(O)C1O (centres unmarked) [SAM.nH2 SO4, n=0.5, reference compound] 0.2

====

Assay type: physicochemical
Conditions: solid salt storage, 5760 h
property: degradation at 45° C. after 240 days (%)
All answers are understood in %, so give the number only.

Reference set (5 entries):
Please supply the value of reported degradation at 45° C. after 240 days for the item C[S+](CCC(N)C(=O)[O-])CC1OC(n2cnc3c(N)ncnc32)C(O)C1O (stereo not shown) [SAM.2HCl.nH2 SO4, n=0.5, reference compound] 100

Using the record for C[S+](CCC(N)C(=O)[O-])CC1OC(n2cnc3c(N)ncnc32)C(O)C1O (stereo not shown) [SAM.4HCl.0.4H2 O] , state its measured degradation at 45° C. after 240 days. 17

Query degradation at 45° C. after 240 days for C[S+](CCC(N)C(=O)[O-])CC1OC(n2cnc3c(N)ncnc32)C(O)C1O (stereo not shown) [SAM.nHCl, n=3, reference compound] 100

Identify degradation at 45° C. after 240 days associated with the compound C[S+](CCC(N)C(=O)[O-])CC1OC(n2cnc3c(N)ncnc32)C(O)C1O (stereo not shown) [SAM.nHCl, n=1, reference compound] 100

Item C[S+](CCC(N)C(=O)[O-])CC1OC(n2cnc3c(N)ncnc32)C(O)C1O (stereo not shown) [SAM.1.5H2 SO4.nHCl, n=1] : provide degradation at 45° C. after 240 days 17

More entries:
Read off the recorded degradation at 45° C. after 240 days for C[S+](CCC(N)C(=O)[O-])CC1OC(n2cnc3c(N)ncnc32)C(O)C1O (stereo not shown) [SAM.2.5H2 SO4] 4.5

// Input: C[S+](CCC(N)C(=O)[O-])CC1OC(n2cnc3c(N)ncnc32)C(O)C1O (stereo not shown) [SAM.1.5H2 SO4.nHCl, n=3] . Output its degradation at 45° C. after 240 days only. 17

====

Assay type: physicochemical
Conditions: solid salt storage, 5760 h
property: degradation at 45° C. after 240 days (%)
Give your result in % as a bare value.

Below, 6 compounds whose answers are already recorded.
Determine from records and report degradation at 45° C. after 240 days for C[S+](CCC(N)C(=O)[O-])CC1OC(n2cnc3c(N)ncnc32)C(O)C1O (stereo not shown) [SAM.2HCl.nH2 SO4, n=1] 17

Supply degradation at 45° C. after 240 days value. Item: C[S+](CCC(N)C(=O)[O-])CC1OC(n2cnc3c(N)ncnc32)C(O)C1O (stereo not shown) [SAM.nH2 SO4, n=0.5, reference compound] 100

Please give the documented degradation at 45° C. after 240 days of C[S+](CCC(N)C(=O)[O-])CC1OC(n2cnc3c(N)ncnc32)C(O)C1O (stereo not shown) [SAM.6HCl.0.7H2 O] 17

Read the entry C[S+](CCC(N)C(=O)[O-])CC1OC(n2cnc3c(N)ncnc32)C(O)C1O (stereo not shown) [SAM.1.5H2 SO4.nHCl, n=2] and write its reported degradation at 45° C. after 240 days. 4.5

Output degradation at 45° C. after 240 days of C[S+](CCC(N)C(=O)[O-])CC1OC(n2cnc3c(N)ncnc32)C(O)C1O (stereo not shown) [SAM.3H2 SO4.0.7H2 O] 17

Write down degradation at 45° C. after 240 days measured for item C[S+](CCC(N)C(=O)[O-])CC1OC(n2cnc3c(N)ncnc32)C(O)C1O (stereo not shown) [SAM.nHCl, n=2, reference compound] 100

Here is another compound to look at.
Please list degradation at 45° C. after 240 days recorded for the compound C[S+](CCC(N)C(=O)[O-])CC1OC(n2cnc3c(N)ncnc32)C(O)C1O (stereo not shown) [SAM.2H2 SO4.0.4H2 O] 17

====

Test: Residual moisture
Assay type: physicochemical
Conditions: Tables 1-4, salts lyophilised without support
Reported residual moisture by item:
Number only, in %; omit the unit.

Answered examples (5):
Give me measured residual moisture, please, for this compound: C[S+](CCC(N)C(=O)[O-])CC1OC(n2cnc3c(N)ncnc32)C(O)C1O (stereo not shown) [SAM.nH2 SO4, n=1, reference compound] 0.5

Please report residual moisture for the following compound: C[S+](CCC(N)C(=O)[O-])CC1OC(n2cnc3c(N)ncnc32)C(O)C1O (stereo not shown) [SAM.nHCl, n=1, reference compound] 0.2

Please report the measured residual moisture for C[S+](CCC(N)C(=O)[O-])CC1OC(n2cnc3c(N)ncnc32)C(O)C1O (stereo not shown) [SAM.1.5H2 SO4.nHCl, n=3] 2

Tell me measured residual moisture for C[S+](CCC(N)C(=O)[O-])CC1OC(n2cnc3c(N)ncnc32)C(O)C1O (stereo not shown) [SAM.2HCl.nH2 SO4, n=2] please. 2

For the compound C[S+](CCC(N)C(=O)[O-])CC1OC(n2cnc3c(N)ncnc32)C(O)C1O (stereo not shown) [SAM.2HCl.nH2 SO4, n=1] , report residual moisture. 1

Others:
Please list residual moisture recorded for the compound C[S+](CCC(N)C(=O)[O-])CC1OC(n2cnc3c(N)ncnc32)C(O)C1O (stereo not shown) [SAM.nHCl, n=2, reference compound] 0.5

Return residual moisture for the following compound: C[S+](CCC(N)C(=O)[O-])CC1OC(n2cnc3c(N)ncnc32)C(O)C1O (stereo not shown) [SAM.1.5H2 SO4.nHCl, n=1] 1

====

Assay type: physicochemical
Conditions: solid salt storage, 8640 h
property: degradation at 45° C. after 360 days (%)
Field format: number, assumed %, no unit text.

Check out these entries, answers already filled in.
Recall and state the measured degradation at 45° C. after 360 days for C[S+](CCC(N)C(=O)[O-])CC1OC(n2cnc3c(N)ncnc32)C(O)C1O (stereo not drawn) [SAM.4HCl.0.4H2 O] . 20

For the compound C[S+](CCC(N)C(=O)[O-])CC1OC(n2cnc3c(N)ncnc32)C(O)C1O (stereo not drawn) [SAM.nHCl, n=3, reference compound] , give its reported degradation at 45° C. after 360 days. 100

---
Look up degradation at 45° C. after 360 days of C[S+](CCC(N)C(=O)[O-])CC1OC(n2cnc3c(N)ncnc32)C(O)C1O (stereo not drawn) [SAM.2HCl.nH2 SO4, n=0.5, reference compound] and report it. 100

Read the entry C[S+](CCC(N)C(=O)[O-])CC1OC(n2cnc3c(N)ncnc32)C(O)C1O (stereo not drawn) [SAM.3H2 SO4.0.7H2 O] and write its reported degradation at 45° C. after 360 days. 20

Give the reported value of degradation at 45° C. after 360 days for this record: C[S+](CCC(N)C(=O)[O-])CC1OC(n2cnc3c(N)ncnc32)C(O)C1O (stereo not drawn) [SAM.2HCl.nH2 SO4, n=2] 20

Output degradation at 45° C. after 360 days of C[S+](CCC(N)C(=O)[O-])CC1OC(n2cnc3c(N)ncnc32)C(O)C1O (stereo not drawn) [SAM.6HCl.0.7H2 O] 20

Please report degradation at 45° C. after 360 days for the following compound: C[S+](CCC(N)C(=O)[O-])CC1OC(n2cnc3c(N)ncnc32)C(O)C1O (stereo not drawn) [SAM.nH2 SO4, n=1, reference compound] 100

Indicate the recorded degradation at 45° C. after 360 days value for this compound: C[S+](CCC(N)C(=O)[O-])CC1OC(n2cnc3c(N)ncnc32)C(O)C1O (stereo not drawn) [SAM.1.5H2 SO4.nHCl, n=2] 5

Read the entry C[S+](CCC(N)C(=O)[O-])CC1OC(n2cnc3c(N)ncnc32)C(O)C1O (stereo not drawn) [SAM.5HCl] and write its reported degradation at 45° C. after 360 days. 5

Specify degradation at 45° C. after 360 days for C[S+](CCC(N)C(=O)[O-])CC1OC(n2cnc3c(N)ncnc32)C(O)C1O (stereo not drawn) [SAM.1.5H2 SO4.nHCl, n=3] and stop. 20

In one line, give reported degradation at 45° C. after 360 days of the entry C[S+](CCC(N)C(=O)[O-])CC1OC(n2cnc3c(N)ncnc32)C(O)C1O (stereo not drawn) [SAM.nH2 SO4, n=0.5, reference compound] . 100

Return value of degradation at 45° C. after 360 days for input C[S+](CCC(N)C(=O)[O-])CC1OC(n2cnc3c(N)ncnc32)C(O)C1O (stereo not drawn) [SAM.nH2 SO4, n=1.5, reference compound] , no commentary. 100

Return degradation at 45° C. after 360 days (reported value) for this compound: C[S+](CCC(N)C(=O)[O-])CC1OC(n2cnc3c(N)ncnc32)C(O)C1O (stereo not drawn) [SAM.nHCl, n=2, reference compound] 100

For C[S+](CCC(N)C(=O)[O-])CC1OC(n2cnc3c(N)ncnc32)C(O)C1O (stereo not drawn) [SAM.2HCl.nH2 SO4, n=1] , write its degradation at 45° C. after 360 days. 20
